Cited source: a melting point compilation (Tetko et al.; mined from patent text by program, amines drawn as free bases though some values may be those of a salt)

Examples of compounds with documented melting point follow.

The cases that follow already have their melting point on record.
• OC(COc1ccc(Cl)cc1)(Cn1cncn1)Cn1cncn1 = 99 °C
• CCC(C)NC(C(=O)O)C(C)C (stereo unspecified) = > 300 °C

Request: So what's the measured melting point for this one? `COc1cc(C(=O)NS(=O)(=O)c2ccccc2C)ccc1Cc1cccc2ccc(CCCC(=O)N3CCOCC3)cc12`
Result: 100 to 102 °C

Request: Further, for `CCOC(=O)CCc1cc(O)nn1C(C)C` ?
Result: 119 to 120 °C

Request: Could you do the same for `CN(C)CCCn1c(=O)c2c(N)c3c(=O)c4ccccc4c(=O)c3c(N)c2c1=O` , please?
Result: 215 to 216 °C

Request: What do we get for O=C([C@@H]1CCCN1C(=O)CC1CCc2ccccc2C1)N1CCCC1 (stereo partly specified) ?
Result: 104 to 106 °C

Request: Please do the same for Cc1cccc(C(=O)n2c3c(c4ccccc42)CC(C(=O)O)CC3)c1 (stereo unspecified) as well.
Result: 180 to 182 °C
